molecular target: YES1 (UniProt P07947); test: log2 fold change, soluble protein after heating vs DMSO (PISA); higher = thermal stabilisation; K562 cells, 10 uM, 30 min; active = over 0.2 and 3.5 SD of the protein, either way, in both replicates (recomputed)
Sequence (P07947 whole entry, looked up): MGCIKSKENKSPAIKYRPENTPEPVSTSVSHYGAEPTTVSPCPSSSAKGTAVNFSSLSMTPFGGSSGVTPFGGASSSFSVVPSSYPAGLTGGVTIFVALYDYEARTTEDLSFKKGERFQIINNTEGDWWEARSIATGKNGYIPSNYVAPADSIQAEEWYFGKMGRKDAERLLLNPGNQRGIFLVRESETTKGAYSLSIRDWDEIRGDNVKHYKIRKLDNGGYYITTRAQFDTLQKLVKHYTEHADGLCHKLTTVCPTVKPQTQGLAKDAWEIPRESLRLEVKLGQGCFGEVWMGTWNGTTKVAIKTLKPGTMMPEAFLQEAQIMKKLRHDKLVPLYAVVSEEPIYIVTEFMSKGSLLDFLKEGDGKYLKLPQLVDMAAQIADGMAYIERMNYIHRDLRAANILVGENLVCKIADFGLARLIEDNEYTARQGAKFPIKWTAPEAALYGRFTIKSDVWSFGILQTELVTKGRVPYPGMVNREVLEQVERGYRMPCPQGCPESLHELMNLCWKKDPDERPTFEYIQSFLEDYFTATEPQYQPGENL
Of roughly 7,900 targets only a part is listed; those with a hit were picked by preference. About 0.6% of all pairs of compound and target were hits.
Would you kindly list log2 fold change for each of these compounds?
Lab note: record just the number, no unit beside it.

Task item: System YES1 (UniProt P07947). Read-out log2 fold change. Item CC1=C(C(=O)Nc2cc3cn[nH]c3cc2F)C(c2ccc(C(F)(F)F)cc2)CC(=O)N1 (centres undefined) . Report value.
Reply: -0.012

Task item: System YES1 (UniProt P07947). Read-out log2 fold change. Item `CC(=O)c1cnc2ccc(-c3cc(Cl)c(O)c(Cl)c3)nc2c1N[C@H]1CC[C@H](CN(C)C)CC1` . Report value.
Reply: -0.819

Task item: System YES1 (UniProt P07947). Read-out log2 fold change. Item `CCCc1cc(C)[nH]c(=O)c1CNC(=O)c1cc(-c2ccnc(N3CCN(C)CC3)c2)cc2c1cnn2C(C)C` . Report value.
Reply: 0.075

Task item: System YES1 (UniProt P07947). Read-out log2 fold change. Item `COc1cc2nc(-c3cc(F)ccc3O)nc(N[C@@H]3CNC[C@H]3C(C)(C)O)c2cc1OC` . Report value.
Reply: -0.052

Values from the supplement of paper PMC10849652
